Data origin: ChEMBL document CHEMBL2218924

# target or test system: Protein kinase C eta type (Homo sapiens) (UniProt P24723)
# Sequence (P24723 whole entry): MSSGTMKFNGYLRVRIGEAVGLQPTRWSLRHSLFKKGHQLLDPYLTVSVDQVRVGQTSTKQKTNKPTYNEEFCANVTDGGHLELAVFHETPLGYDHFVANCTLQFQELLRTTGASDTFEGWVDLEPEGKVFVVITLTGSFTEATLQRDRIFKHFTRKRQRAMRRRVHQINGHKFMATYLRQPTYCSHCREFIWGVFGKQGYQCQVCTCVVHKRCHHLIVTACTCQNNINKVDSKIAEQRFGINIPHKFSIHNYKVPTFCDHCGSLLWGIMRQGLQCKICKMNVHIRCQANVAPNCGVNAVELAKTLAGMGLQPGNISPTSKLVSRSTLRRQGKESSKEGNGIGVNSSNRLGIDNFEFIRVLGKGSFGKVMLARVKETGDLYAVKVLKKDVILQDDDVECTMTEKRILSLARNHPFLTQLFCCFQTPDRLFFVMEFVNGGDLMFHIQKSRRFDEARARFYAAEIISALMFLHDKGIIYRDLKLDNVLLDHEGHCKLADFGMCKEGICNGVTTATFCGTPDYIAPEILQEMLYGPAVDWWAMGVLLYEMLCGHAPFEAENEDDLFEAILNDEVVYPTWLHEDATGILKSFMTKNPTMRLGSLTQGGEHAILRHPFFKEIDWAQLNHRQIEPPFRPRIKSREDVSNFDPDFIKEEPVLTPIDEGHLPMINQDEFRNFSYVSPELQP
# settings: at 10 µM
observation type: residual activity (%)
Numbers only, in %.

Study these solved cases before continuing.
*Q* So what does the record say about residual activity for O=C1NC(=O)C(c2cn(CCCO)c3ncccc23)=C1c1cnccn1 ?
*A* 87

*Q* What do we get for O=C1NC(=O)C(c2cn(CCCn3ccnc3)c3ccccc23)=C1Nc1ccccc1 ?
*A* 2

*Q* What do we get for NC(=O)c1cccc(-c2cc(Nc3ccc(OC(F)(F)F)cc3)ncn2)c1 ?
*A* 91

*Q* What do we get for COc1cc2nccc(Oc3ccc(NC(=O)Nc4cc(C)on4)c(Cl)c3)c2cc1OC ?
*A* 79

From here, focus on the item given below.
*Q* So what does the record say about residual activity for O=C1Cc2c([nH]c3ccc(Br)cc23)-c2ccccc2N1 ?
*A* 94

====

# target or test system: Serine/threonine-protein kinase Chk1 (Homo sapiens) (UniProt O14757)
# Sequence (whole entry): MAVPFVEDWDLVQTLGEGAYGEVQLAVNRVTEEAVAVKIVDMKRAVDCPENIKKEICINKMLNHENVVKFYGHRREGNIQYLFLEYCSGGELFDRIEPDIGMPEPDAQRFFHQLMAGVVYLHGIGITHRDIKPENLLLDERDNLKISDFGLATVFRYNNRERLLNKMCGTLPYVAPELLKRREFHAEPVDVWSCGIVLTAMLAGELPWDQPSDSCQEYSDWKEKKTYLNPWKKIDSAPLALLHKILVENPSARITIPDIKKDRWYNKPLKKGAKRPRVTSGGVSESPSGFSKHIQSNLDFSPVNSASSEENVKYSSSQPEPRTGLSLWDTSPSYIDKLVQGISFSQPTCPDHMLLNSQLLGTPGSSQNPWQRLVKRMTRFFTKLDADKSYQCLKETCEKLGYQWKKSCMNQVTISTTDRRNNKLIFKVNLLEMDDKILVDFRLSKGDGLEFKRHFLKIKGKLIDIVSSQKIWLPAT
# settings: at 10 µM
Everything with residual activity lower than 50% is no; everything else, including exactly 50%, is yes.

# count of solved cases: 2
*Q* Determine whether measured residual activity meets or exceeds 50% for Nc1n[nH]c2nc3ccccc3nc12
*A* yes

*Q* What do we get for CC(C)(C)c1nc2c3ccc(F)cc3c3c(=O)[nH]ccc3c2[nH]1 ?
*A* no

New cases:
*Q* Determine whether measured residual activity meets or exceeds 50% for NC(=O)Nc1sc(-c2ccc(F)cc2)cc1C(N)=O
*A* no

*Q* What do we get for CC(C)(C)n1nc(Cc2cccc3ccccc23)c2c(N)ncnc21 ?
*A* yes

*Q* What do we get for NCCNc1ncc(C(N)=O)c(Nc2cccc(C(F)(F)F)c2)n1 ?
*A* no

====

# target or test system: Ephrin type-A receptor 7 (Homo sapiens) (UniProt Q15375)
# Sequence (Q15375 28-998 limits assumed): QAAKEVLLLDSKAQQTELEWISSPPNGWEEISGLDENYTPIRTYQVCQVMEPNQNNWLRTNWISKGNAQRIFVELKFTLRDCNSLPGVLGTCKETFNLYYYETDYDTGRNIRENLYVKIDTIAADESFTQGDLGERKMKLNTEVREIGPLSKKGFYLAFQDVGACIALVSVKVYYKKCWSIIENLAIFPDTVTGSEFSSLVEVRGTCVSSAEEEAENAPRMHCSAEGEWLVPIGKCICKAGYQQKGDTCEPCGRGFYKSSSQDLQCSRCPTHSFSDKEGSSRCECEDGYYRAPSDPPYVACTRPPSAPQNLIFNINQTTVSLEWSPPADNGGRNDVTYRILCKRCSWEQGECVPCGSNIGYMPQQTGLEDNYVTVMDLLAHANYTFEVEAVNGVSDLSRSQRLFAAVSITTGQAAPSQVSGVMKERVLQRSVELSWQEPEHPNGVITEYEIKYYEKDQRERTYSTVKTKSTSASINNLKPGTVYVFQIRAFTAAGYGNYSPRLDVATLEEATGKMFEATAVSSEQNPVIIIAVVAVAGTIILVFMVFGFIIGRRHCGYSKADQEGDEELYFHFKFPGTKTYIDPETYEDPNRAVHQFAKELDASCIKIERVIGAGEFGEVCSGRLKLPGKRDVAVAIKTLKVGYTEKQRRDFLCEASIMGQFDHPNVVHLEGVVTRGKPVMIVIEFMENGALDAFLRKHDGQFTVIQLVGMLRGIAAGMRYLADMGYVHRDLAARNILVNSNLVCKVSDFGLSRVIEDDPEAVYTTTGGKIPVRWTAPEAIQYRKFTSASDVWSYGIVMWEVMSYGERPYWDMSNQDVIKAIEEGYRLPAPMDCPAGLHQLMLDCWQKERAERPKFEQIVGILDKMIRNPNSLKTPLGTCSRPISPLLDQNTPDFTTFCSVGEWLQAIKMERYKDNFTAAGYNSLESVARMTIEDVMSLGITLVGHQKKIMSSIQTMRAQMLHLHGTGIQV
# settings: at 10 µM
Provide the reported residual activity of each item.
The reply should consist of the numeric value with the unit placed after it.

Study these solved cases before continuing.
*Q* So what does the record say about residual activity for COc1ccc(-c2cnc3c(-c4ccsc4)cnn3c2)cc1 ?
*A* 95%

*Q* What do we get for Nc1n[nH]c2nc3ccccc3nc12 ?
*A* 79%

*Q* What do we get for O=C(NC(NC(=S)Nc1ccc(F)c([N+](=O)[O-])c1)C(Cl)(Cl)Cl)C(c1ccccc1)c1ccccc1 (stereo unspecified) ?
*A* 99%

*Q* What do we get for COc1cc2nccc(Oc3ccc(NC(=O)Nc4cc(C)on4)c(Cl)c3)c2cc1OC ?
*A* 1%

List the reported residual activity of each molecule below.
1. O=c1cc(N2CCOCC2)oc2c(-c3ccccc3)cccc12
2. CCCCc1c(-c2ccc(OC)cc2)[nH]c2nccnc12
3. COc1cc2c(cc1OC)-c1n[nH]c(Nc3cccc(F)c3)c1C2

*A*
1. 79%
2. 73%
3. 64%

List the reported residual activity of each molecule below.
1. Nc1nc(Nc2ccc(S(N)(=O)=O)cc2)nn1C(=O)c1c(F)cccc1F
2. CCOC(=O)c1c(C)[nH]c(/C=C2\C(=O)Nc3ccccc32)c1C
3. O=C(O)/C=C/c1cc(Br)c(Br)c(Br)c1Br
4. O=c1cc(N2CCNCC2)oc2c(-c3ccccc3)cccc12

*A*
["8%", "93%", "92%", "88%"]

====

# target or test system: Serine/threonine-protein kinase pim-2 (Homo sapiens) (UniProt Q9P1W9)
# Sequence (Q9P1W9 whole entry, looked up): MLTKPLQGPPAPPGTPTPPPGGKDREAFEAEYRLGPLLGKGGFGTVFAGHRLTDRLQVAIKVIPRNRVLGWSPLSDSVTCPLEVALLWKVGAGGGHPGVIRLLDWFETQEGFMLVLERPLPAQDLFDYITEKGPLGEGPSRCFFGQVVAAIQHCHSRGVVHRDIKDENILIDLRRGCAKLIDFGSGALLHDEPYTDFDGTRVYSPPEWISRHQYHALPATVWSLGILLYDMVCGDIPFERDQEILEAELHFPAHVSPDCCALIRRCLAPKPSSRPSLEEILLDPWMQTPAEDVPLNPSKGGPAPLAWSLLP
# settings: at 1 µM
observation type: residual activity (%)
Answers are plain numbers, in %.

Study these solved cases before continuing.
*Q* So what does the record say about residual activity for COc1ccc(CNC(=O)Nc2ncc([N+](=O)[O-])s2)cc1 ?
*A* 134

*Q* What do we get for CCCCc1c(-c2ccc(OC)cc2)[nH]c2nccnc12 ?
*A* 112

List the reported residual activity of each molecule below.
1. c1ccc(-c2cnc(Nc3ccc(OCCN4CCCC4)cc3)s2)cc1
2. O=C1Nc2ccccc2/C1=C\c1c(Cl)[nH]c2ccccc12
3. Nc1ncnc2c1c(-c1ccc(Oc3ccccc3)cc1)cn2C1CCCC1
4. Nc1nc(Nc2ccc(S(N)(=O)=O)cc2)nn1C(=O)c1c(F)cccc1F
5. O=C1NC(=O)C(c2cn(CCCn3ccnc3)c3ccccc23)=C1Nc1ccccc1
6. CC(C)(C)n1nc(Cc2cccc3ccccc23)c2c(N)ncnc21

*A*
1: 111; 2: 73; 3: 106; 4: 99; 5: 77; 6: 114

====

# target or test system: Discoidin domain-containing receptor 2 (Homo sapiens)
# settings: at 1 µM
Provide the reported residual activity of each item.
Numbers only, in %.

Study these solved cases before continuing.
*Q* So what does the record say about residual activity for CCCCc1c(-c2ccc(O)cc2)[nH]c2nccnc12 ?
*A* 71

*Q* What do we get for CCCCc1c(-c2ccc(OC)cc2)[nH]c2nccnc12 ?
*A* 71

*Q* What do we get for COc1ccc(Cl)cc1NC(=O)Nc1cc(C)nc2ccccc12 ?
*A* 83

*Q* What do we get for O=c1cc(N2CCOCC2)oc2c1ccc1ccccc12 ?
*A* 106

List the reported residual activity of each compound below.
1. Nc1ncnc2c1c(-c1ccc(Oc3ccccc3)cc1)cn2C1CCCC1
2. O=C(c1ccccc1)c1ccc(N2CCOCC2)cc1O
3. COc1ccc(COc2ccc(Cc3cnc(N)nc3N)cc2OC)cc1
4. Nc1ncnc2[nH]nc(Nc3ccc(F)cc3)c12

*A*
[105, 111, 112, 95]

*Q* So what does the record say about residual activity for CC(C)[C@H](CO)Nc1nc(Nc2cc(N)cc(Cl)c2)c2ncn(C(C)C)c2n1 ?
*A* 95

====

# target or test system: Serine/threonine-protein kinase pim-1 (Homo sapiens) (UniProt P11309)
# Sequence (P11309 whole entry, looked up): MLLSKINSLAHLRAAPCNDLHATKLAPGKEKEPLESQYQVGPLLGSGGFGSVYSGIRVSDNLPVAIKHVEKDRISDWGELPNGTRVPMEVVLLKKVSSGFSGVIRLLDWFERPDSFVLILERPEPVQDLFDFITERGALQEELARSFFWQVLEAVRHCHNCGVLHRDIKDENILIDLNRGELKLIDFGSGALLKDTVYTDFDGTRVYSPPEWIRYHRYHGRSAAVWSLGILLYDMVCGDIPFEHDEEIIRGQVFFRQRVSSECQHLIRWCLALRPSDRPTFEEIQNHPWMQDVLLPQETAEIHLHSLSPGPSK
# settings: at 10 µM
Label key: Fulfilled means residual activity under 20%; Not fulfilled means residual activity of 20% or more.

# count of solved cases: 4
*Q* Please indicate whether the reported residual activity of COc1cc2nccc(Oc3ccc(NC(=S)NC(=O)c4ccccc4C)cc3)c2cc1OC is strictly below 20%.
*A* Not fulfilled

*Q* What do we get for Cn1c2ccccc2c2c3c(c4c5ccccc5n(CCC#N)c4c21)CNC3=O ?
*A* Not fulfilled

*Q* What do we get for Nc1ncnc2c1cnn2-c1ccccc1 ?
*A* Not fulfilled

*Q* What do we get for O=C1Cc2c([nH]c3ccc(Br)cc23)-c2ccccc2N1 ?
*A* Not fulfilled

New cases:
*Q* Please indicate whether the reported residual activity of CN([C@@H](Cc1ccc(OS(=O)(=O)c2cccc3cnccc23)cc1)C(=O)N1CCN(c2ccccc2)CC1)S(=O)(=O)c1cccc2cnccc12 is strictly below 20%.
*A* Not fulfilled

*Q* What do we get for O=C1NC(=O)C(c2cn(CCCn3ccnc3)c3ccccc23)=C1Nc1ccccc1 ?
*A* Fulfilled

*Q* What do we get for COc1ccc(CNC(=O)Nc2ncc([N+](=O)[O-])s2)cc1 ?
*A* Not fulfilled

*Q* What do we get for CC(C)c1nn(-c2c(Cl)cccc2Cl)c2nc(Cc3ccc(OCCO)cc3)[nH]c(=O)c12 ?
*A* Not fulfilled

*Q* What do we get for O=C(O)/C=C/c1cc(Br)c(Br)c(Br)c1Br ?
*A* Fulfilled

====

# target or test system: Serine/threonine-protein kinase VRK2 (Homo sapiens) (UniProt Q86Y07)
# Sequence (Q86Y07 whole entry): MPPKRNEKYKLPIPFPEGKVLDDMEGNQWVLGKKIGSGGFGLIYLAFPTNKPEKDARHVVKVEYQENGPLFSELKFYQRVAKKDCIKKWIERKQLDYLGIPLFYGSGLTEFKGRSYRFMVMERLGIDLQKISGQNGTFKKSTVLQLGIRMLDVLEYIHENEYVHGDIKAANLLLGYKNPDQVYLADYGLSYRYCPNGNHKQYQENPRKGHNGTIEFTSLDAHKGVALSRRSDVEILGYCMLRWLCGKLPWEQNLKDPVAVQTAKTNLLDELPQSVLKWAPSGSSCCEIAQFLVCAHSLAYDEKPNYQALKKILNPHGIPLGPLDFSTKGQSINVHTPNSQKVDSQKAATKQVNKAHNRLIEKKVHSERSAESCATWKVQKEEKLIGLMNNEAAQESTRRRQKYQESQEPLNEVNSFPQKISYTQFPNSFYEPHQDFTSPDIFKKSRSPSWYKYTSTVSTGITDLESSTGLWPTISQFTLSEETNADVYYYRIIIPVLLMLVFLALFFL
# settings: at 10 µM
# Description: Millipore: Percentage of residual kinase activity of VRK2 at 10uM relative to control. Control inhibitor: Phosphoric acid* at 0.3uM. Buffer: 8 mM MOPS pH 7.0, 0.2 mM EDTA
observation type: residual activity (%)
Answers are plain numbers, in %.

List the reported residual activity of each compound below.
1. Nc1n[nH]c2nc3ccccc3nc12
2. O=C(c1cc2cc(O)ccc2[nH]1)c1cc2cc(O)ccc2[nH]1
3. COc1ccc2c(c1)c(C1=C(c3c[nH]c4ccccc34)C(=O)NC1=O)cn2CCCN(C)C
4. NCCNc1ncc(C(N)=O)c(Nc2cccc(C(F)(F)F)c2)n1
5. CC(C)(C)n1nc(Cc2cccc3ccccc23)c2c(N)ncnc21
6. O=c1c(-c2ccc(F)cc2)c(-c2ccncc2)[nH]n1-c1ccc(Cl)cc1
7. Nc1nc(Nc2ccc(S(N)(=O)=O)cc2)nn1C(=O)c1c(F)cccc1F
8. NC(=O)c1ccc(-c2nc(-c3ccc4c(c3)OCCO4)c(-c3ccccn3)[nH]2)cc1

*A*
1. 86
2. 37
3. 69
4. 43
5. 68
6. 99
7. 69
8. 98
